Tested on: Entamoeba histolytica
Test summary: Antiamoebic activity against Entamoeba histolytica HM1:IMSS after 72 hrs by microdilution method
Type: functional, organism-based
Cond: HM-1:IMSS
Measured attribute: IC50
Please state the value followed by its unit.

Some entries whose results are on file:
Cc1ccc(/C=C/C(=O)c2ccc(C)cc2)cc1 [4,4'-DIMETHYLCHALCONE] ... 4.19 µM
Cc1ccc(C(=O)/C=C/c2ccc(Cl)cc2)cc1 ... 5.22 µM
Cc1ccc(C(=O)/C=C/c2ccccc2)cc1 ... 4.83 µM
COc1ccc(-c2nnnn2CC(=O)N2N=C(c3ccc(C)cc3)CC2c2ccc(C)cc2)cc1 (stereo unspecified) ... 0.86 µM
COc1ccc(/C=C/C(=O)c2ccc(C)cc2)cc1 ... 4.76 µM
COc1ccc(/C=C/C(=O)c2ccccc2)cc1 [4-METHOXY CHALCONE] ... 5.93 µM
Cc1ccc(/C=C/C(=O)c2ccc(Cl)cc2)cc1 ... 5.32 µM
COc1ccc(-c2nnnn2CC(=O)N2N=C(c3ccc(C)cc3)CC2c2ccccc2)cc1 (stereo unspecified) ... 1.2 µM
COc1ccc(-c2nnnn2CC(=O)N2N=C(c3ccc(C)cc3)CC2c2ccc([N+](=O)[O-])cc2)cc1 (stereo unspecified) ... 2.63 µM
O=C(/C=C/c1ccc(Cl)cc1)c1ccc(Cl)cc1 [4',4-DICHLOROCHALCONE] ... 5.86 µM

For the compound O=C(/C=C/c1ccc([N+](=O)[O-])cc1)c1ccc(Cl)cc1 , report IC50.
6.18 µM

For the compound COc1ccc(/C=C/C(=O)c2ccc(Cl)cc2)cc1 , report IC50.
5.1 µM

For the compound COc1ccc(-c2nnnn2CC(=O)N2N=C(c3ccc(Cl)cc3)CC2c2ccc(OC)cc2)cc1 (stereo unspecified) , report IC50.
2.63 µM

For the compound COc1ccc(-c2nnnn2CC(=O)N2N=C(c3ccc(Cl)cc3)CC2c2ccc(C)cc2)cc1 (stereo unspecified) , report IC50.
2.96 µM

For the compound O=C(/C=C/c1ccc([N+](=O)[O-])cc1)c1ccccc1 , report IC50.
6.02 µM

###

Attribute: IC50
Test system: HepG2
Test summary: Cytotoxicity against human HepG2 cells after 48 hrs by MTT assay
Cond: HepG2, 48 h
Write down the numeric answer in µM and omit the unit.

Some entries whose results are on file:
Cc1ccc(C(=O)/C=C/c2ccc(Cl)cc2)cc1 ... 74.2
O=C(/C=C/c1ccccc1)c1ccc(Cl)cc1 ... 94.7
Cc1ccc(C(=O)/C=C/c2ccc([N+](=O)[O-])cc2)cc1 ... 85.6
O=C(/C=C/c1ccc(Cl)cc1)c1ccc(Cl)cc1 ... 82.8
COc1ccc(-c2nnnn2CC(=O)N2N=C(c3ccc(Cl)cc3)CC2c2ccc(Cl)cc2)cc1 (stereo not given) ... 80.3
COc1ccc(/C=C/C(=O)c2ccc(Cl)cc2)cc1 ... 97.2

Give the observed IC50 of COc1ccc(-c2nnnn2CC(=O)N2N=C(c3ccc(Cl)cc3)CC2c2ccc([N+](=O)[O-])cc2)cc1 (stereo not given) for HepG2.
86.5

Give the observed IC50 of COc1ccc(-c2nnnn2CC(=O)N2N=C(c3ccc(Cl)cc3)CC2c2ccc(C)cc2)cc1 (stereo not given) for HepG2.
92.6

Give the observed IC50 of O=C(/C=C/c1ccc([N+](=O)[O-])cc1)c1ccccc1 for HepG2.
64.7

Give the observed IC50 of COc1ccc(-c2nnnn2CC(=O)N2N=C(c3ccc(C)cc3)CC2c2ccc(Cl)cc2)cc1 (stereo not given) for HepG2.
98

Give the observed IC50 of COc1ccc(-c2nnnn2CC(=O)N2N=C(c3ccccc3)CC2c2ccc([N+](=O)[O-])cc2)cc1 (stereo not given) for HepG2.
79.8

Give the observed IC50 of O=C(/C=C/c1ccc(Cl)cc1)c1ccccc1 for HepG2.
97.2

###

Tested on: HepG2
Test summary: Cytotoxicity against human HepG2 cells after 48 hrs by MTT assay
Cond: HepG2, 48 h
Measured attribute: IC50 (µM)
Write down the numeric answer in µM and omit the unit.

COc1ccc(-c2nnnn2CC(=O)N2N=C(c3ccccc3)CC2c2ccccc2)cc1 (stereo not given) ... 85.3
Cc1ccc(/C=C/C(=O)c2ccc(Cl)cc2)cc1 ... 92.6
O=C(/C=C/c1ccc([N+](=O)[O-])cc1)c1ccc(Cl)cc1 ... 40.2
COc1ccc(-c2nnnn2CC(=O)N2N=C(c3ccccc3)CC2c2ccc(Cl)cc2)cc1 (stereo not given) ... 80.4

For the molecule COc1ccc(-c2nnnn2CC(=O)N2N=C(c3ccc(Cl)cc3)CC2c2ccccc2)cc1 (stereo not given) , report IC50.
90.6

###

Attribute: IC50
System: Entamoeba histolytica
Test summary: Antiamoebic activity against Entamoeba histolytica HM1:IMSS after 72 hrs by microdilution method
Type: functional, organism-based
Cond: HM-1:IMSS
Write down the numeric answer in µM and omit the unit.

Some entries whose results are on file:
COc1ccc(-c2nnnn2CC(=O)N2N=C(c3ccc(C)cc3)CC2c2ccc(Cl)cc2)cc1 (centres undefined) ... 2.84
COc1ccc(-c2nnnn2CC(=O)N2N=C(c3ccccc3)CC2c2ccc(OC)cc2)cc1 (centres undefined) ... 1.16
COc1ccc(-c2nnnn2CC(=O)N2N=C(c3ccc(Cl)cc3)CC2c2ccc([N+](=O)[O-])cc2)cc1 (centres undefined) ... 4.89
COc1ccc(-c2nnnn2CC(=O)N2N=C(c3ccc(C)cc3)CC2c2ccc(OC)cc2)cc1 (centres undefined) ... 1.08
O=C(/C=C/c1ccccc1)c1ccc(Cl)cc1 ... 6.96

For the molecule COc1ccc(-c2nnnn2CC(=O)N2N=C(c3ccc(Cl)cc3)CC2c2ccccc2)cc1 (centres undefined) , report IC50.
3.15

For the molecule COc1ccc(-c2nnnn2CC(=O)N2N=C(c3ccccc3)CC2c2ccc(Cl)cc2)cc1 (centres undefined) , report IC50.
3.02

For the molecule COc1ccc(-c2nnnn2CC(=O)N2N=C(c3ccccc3)CC2c2ccc(C)cc2)cc1 (centres undefined) , report IC50.
1.28

For the molecule O=C(/C=C/c1ccc(Cl)cc1)c1ccccc1 , report IC50.
7.32

###

Test system: Entamoeba histolytica
Test summary: Antiamoebic activity against Entamoeba histolytica HM1:IMSS after 72 hrs by microdilution method
Type: functional, organism-based
Cond: HM-1:IMSS
IC50 strictly under 5 µM means satisfied; at 5 µM or over means not satisfied.

Worked examples follow.
COc1ccc(-c2nnnn2CC(=O)N2N=C(c3ccccc3)CC2c2ccccc2)cc1 (stereo unspecified) ... not satisfied
O=C(/C=C/c1ccccc1)c1ccccc1 [CHALCONE] ... not satisfied
Cc1ccc(/C=C/C(=O)c2ccccc2)cc1 ... satisfied
COc1ccc(-c2nnnn2CC(=O)N2N=C(c3ccc(Cl)cc3)CC2c2ccc(Cl)cc2)cc1 (stereo unspecified) ... satisfied

For COc1ccc(-c2nnnn2CC(=O)N2N=C(c3ccccc3)CC2c2ccc([N+](=O)[O-])cc2)cc1 (stereo unspecified) , is the recorded IC50 below the cut-off of 5 µM?
satisfied
